Value source: PubChem BioAssay

- System: Human papillomavirus type 1a E7 protein (residues 1-88)
- ASSAY_INFO: HPV1a E7 small-molecule binders, primary screen, biochemical, small-molecule microarray, residues 1-88, 635 nm (AID 1129)
- CONDITION_SET: small-molecule microarray binding, fluorescence 635 nm; higher = more signal
Grouping by measured composite z-score is done with the following cut points: zone 1: < 0.1; zone 2: ≥ 0.1 and < 1; zone 3: ≥ 1

Example entries and their recorded answers appear below.
C=C(COC)C(=O)CC[C@H](OC(=O)c1cccnc1)c1ccc(CO)o1: zone 2
C=C[C@H](C)[C@H](OC(=O)Nc1ccc(OC)cc1)c1ccc(OCCO)cc1: zone 1
C=CCC(OC(C)=O)[C@@H]1[C@@H](N(Cc2ccc(-c3ccccc3)cc2)C(=O)c2ccc(C)cc2)c2cc(OCCCO)ccc2N1C(=O)Cc1ccc2ccccc2c1 (stereo not given in full): zone 1
COc1ccc(NC(=O)O[C@H]2[C@@H]3OC(=O)[C@H](Cc4cccc(Br)c4)C/C=C/C[C@@H](Cc4cccc(Br)c4)C(=O)O[C@H]3[C@@H](OC)O[C@@H]2CO)cc1: zone 2
C=CCNC(=O)[C@@H]1[C@H]2C(=O)O[C@H](c3ccccc3)[C@H](c3ccccc3)N2[C@H](c2ccc(O)cc2)[C@@]12C(=O)N(C(=O)OCCOC)c1ccc(C#CCCO)cc12: zone 2
CCOC(=O)C1=C[C@@H](C(C)(C)C)N(S(=O)(=O)c2ccc(C)cc2)[C@H]1c1cccc(Cl)c1: zone 3
CCCCC(=C=CC[C@H](O)c1ccc(OCCO)cc1)C[C@H](O)COCc1ccccc1: zone 1
COCC(=C=CC[C@H](O)c1cccc(OCCO)c1)C[C@H](O)COCc1ccccc1: zone 3
CC(CO)N1C(=O)[C@@H]2[C@H]3C(=O)OCC=C[C@H]3OC23C=CCN(c2ccc(Cl)cc2)C(=O)[C@@H]13 (stereo not given in full): zone 1
CCOC(=O)C[C@H]1[C@H](OC(=O)c2ccc(-c3ccccc3)cc2)[C@@H](NC(=O)CC(C)C)c2cc(OCCCO)ccc2N1C(=O)c1ccccc1: zone 2

Please indicate the class for COc1cc(NN2C(C(O)c3cc(OC)c(OC)c(OC)c3)C=CC3C(=O)N(c4ccccc4)C(=O)C32)cc(OC)c1OC (stereo not given) based on its composite z-score.
zone 3

Please indicate the class for `COc1cc(CO)cc(I)c1O[C@H]1C=C(C(=O)NCCO)C[C@@H](NCC2CCCCC2)[C@@H]1O` based on its composite z-score.
zone 2

Please indicate the class for Cc1ccc(C(C)CC(O)C2C=CC3C(=O)N(c4ccccc4)C(=O)C3N2Nc2ccc(C#N)cc2)o1 (stereo not given) based on its composite z-score.
zone 3

Please indicate the class for `CC(C)CNC(=O)[C@@]1(c2ccc([N+](=O)[O-])cc2)CC(=O)N(C2CCCCC2)[C@@H]1c1ccc(CO)cc1` based on its composite z-score.
zone 3

---

- ASSAY_INFO: splicing luciferase reporter signal modulators, primary screen, spliceosome inhibition project, cell-based, HEK293, splice +/- reporter (AID 1101);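 further: HEK293 cells carrying a splicing-competent luciferase reporter gene; test concentration not given here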
- CONDITION_SET: luminescence, 24 h, higher = more signal, called active from +8 up or from −8 down
Listed molecules paired with reported z-score
Answer using only a numeral; do not append any unit.

Example molecules with recorded z-score:
COc1cc(NN2C(C(O)C3CCCCC3)C=CC3C(=O)N(c4ccccc4)C(=O)C32)cc(OC)c1OC (stereo not drawn): -0.983
CCc1cccc(NC(=O)O[C@H]2[C@H](OC(=O)Nc3ccccc3)[C@H](OC(=O)Nc3ccccc3)[C@@H](OC)O[C@@H]2CO)c1: -0.376

Provide one value: measured z-score of `C=C(CCCC)C(=O)CC[C@H](OC(C)=O)c1ccc(OCCO)cc1`
-0.942

Provide one value: measured z-score of `COc1ccc(CCNC(=O)[C@@]2(Cc3ccccc3I)c3ccccc3C(=O)N(Cc3ccccc3Cl)[C@H]2c2ccc(CO)cc2)cc1`
-1.55
